Data provenance is PubChem BioAssay.

# TGT: Alpha-2C adrenergic receptor (Homo sapiens)
# TEST: modulators of alpha2C/GIRK thallium flux, primary screen, cell-based, HEK293 alpha2C/GIRK1/2 (AID 624);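 also: slope of fluorescence ratio to pre-addition baseline per second over 15 to 24 s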
# PROTOCOL_CONDITIONS: thallium flux BTC fluorescence, at 10 µM, actives lie on both sides
Each record's class is read off its slope using these ranges: Low (below 0.005), Medium (0.005 to below 0.006), High (0.006 or more)

{"MOLECULE": "CC(C)Nc1ncnc2c1cnn2-c1ccccc1", "ASSIGNED_CATEGORY": "Medium"}
{"MOLECULE": "O=C(COc1ccccc1)NCC(c1cccs1)N1CCOCC1 (stereo unspecified)", "ASSIGNED_CATEGORY": "High"}
{"MOLECULE": "CCOC(=O)C(C)(C)Sc1nc2c(cnn2-c2ccc(C)cc2)c(=O)[nH]1", "ASSIGNED_CATEGORY": "Medium"}
{"MOLECULE": "Cc1ccccc1-n1c(Cn2c(=O)sc3ccccc32)nnc1SCC(=O)N1CCCC1", "ASSIGNED_CATEGORY": "High"}
{"MOLECULE": "CCOc1ccc2[nH]c(=O)c(C(c3nnnn3Cc3ccco3)N3CCC(C)CC3)cc2c1 (stereo unspecified)", "ASSIGNED_CATEGORY": "Low"}
{"MOLECULE": "COc1ccc(OC)c(S(=O)(=O)Nc2ccccc2SC)c1", "ASSIGNED_CATEGORY": "Low"}
{"MOLECULE": "COc1ccccc1Oc1ccc(S(=O)(=O)N2CCOCC2)cc1S(=O)(=O)N1CCOCC1", "ASSIGNED_CATEGORY": "Medium"}
{"MOLECULE": "O=C(NCCCNC(=O)c1ccccn1)c1ccccn1", "ASSIGNED_CATEGORY": "Medium"}
{"MOLECULE": "CC(CCc1ccccc1)NC(=O)C1CCCN(c2nnc(-n3cccc3)s2)C1 (stereo unspecified)", "ASSIGNED_CATEGORY": "Low"}
{"MOLECULE": "COc1ccc(OCC(=O)Nc2cccc3ncccc23)cc1", "ASSIGNED_CATEGORY": "Low"}
{"MOLECULE": "CCn1c(C(C#N)/C(=N\\S(=O)(=O)c2cccs2)c2ccccc2)nc2ccccc21 (stereo unspecified)", "ASSIGNED_CATEGORY": "High"}
{"MOLECULE": "O=C(CSc1nc(N2CCCCC2)nc(N2CCCCC2)n1)Nc1nccs1", "ASSIGNED_CATEGORY": "High"}
{"MOLECULE": "O=C(CCNS(=O)(=O)c1cccc2nsnc12)NCc1cccs1", "ASSIGNED_CATEGORY": "Medium"}
{"MOLECULE": "O=C1c2ccccc2S(=O)(=O)N1CC(O)Cn1c2ccccc2c2ccccc21 (stereo unspecified)", "ASSIGNED_CATEGORY": "Low"}
{"MOLECULE": "CC1CCCN(S(=O)(=O)c2coc(C(N)=O)c2)C1 (stereo unspecified)", "ASSIGNED_CATEGORY": "High"}
{"MOLECULE": "CC(C)OC(=O)c1cccc(C(=O)O)n1", "ASSIGNED_CATEGORY": "Medium"}
{"MOLECULE": "COc1ccc(Cn2nnnc2C(c2ccccn2)N2CCN(c3cc(Cl)ccc3C)CC2)cc1 (stereo unspecified)", "ASSIGNED_CATEGORY": "High"}
{"MOLECULE": "COc1ccc2[nH]c(C)c(CCN3C(=O)OC(C)(C)C3(C)O)c2c1 (stereo unspecified)", "ASSIGNED_CATEGORY": "High"}
{"MOLECULE": "CS(=O)(=O)N(CC(=O)NCc1ccncc1)Cc1ccc(Cl)cc1", "ASSIGNED_CATEGORY": "Low"}
{"MOLECULE": "COc1ccc(NC(=O)CN(c2ccc(C)cc2)S(C)(=O)=O)c(OC)c1", "ASSIGNED_CATEGORY": "Low"}
{"MOLECULE": "CC(C)(C)n1ncc2c(=O)n(CC(=O)NCc3ccc(F)cc3)cnc21", "ASSIGNED_CATEGORY": "Medium"}
{"MOLECULE": "CCC1Oc2ccc(C)cc2N(CC(=O)N(Cc2cccnc2)Cc2ccc(C)o2)C1=O (stereo unspecified)", "ASSIGNED_CATEGORY": "Low"}
{"MOLECULE": "Cc1ccc(-c2noc(CCC(=O)NCC3CCN(Cc4cccc(C)c4)CC3)n2)cc1", "ASSIGNED_CATEGORY": "Low"}
{"MOLECULE": "CCN1C(=O)c2ccccc2S(=O)(=O)c2ccc(C(=O)NCc3cccnc3)cc21", "ASSIGNED_CATEGORY": "High"}
{"MOLECULE": "Cc1ccc2cc3cc(C(=O)N4CC(C)CC(C)C4)oc3nc2c1 (stereo unspecified)", "ASSIGNED_CATEGORY": "High"}
{"MOLECULE": "COc1cccc(-c2cc(C(=O)N3CCCCCC3)no2)c1", "ASSIGNED_CATEGORY": "High"}
{"MOLECULE": "O=C(CCc1ccccc1)Nc1ccncc1", "ASSIGNED_CATEGORY": "Low"}
{"MOLECULE": "CCCCCCC1/C(=N/O)CCC1C(=O)OC (stereo unspecified)", "ASSIGNED_CATEGORY": "High"}
{"MOLECULE": "CCc1ccc(CNCc2cccnc2)cc1", "ASSIGNED_CATEGORY": "Low"}
{"MOLECULE": "CC(O)c1cc2c(cc1NC(=O)c1cnn3c1NC(c1ccco1)CC3C(F)(F)F)OCO2 (stereo unspecified)", "ASSIGNED_CATEGORY": "High"}
{"MOLECULE": "COc1cccc(CNc2nc3nc(C)c(Cl)c(C)n3n2)c1", "ASSIGNED_CATEGORY": "High"}
{"MOLECULE": "COc1ccc(-c2nc3c(n2O)CCC/C3=N\\O)cc1", "ASSIGNED_CATEGORY": "High"}
{"MOLECULE": "COc1ccc(OC)c(S(=O)(=O)NCCC2=CCCCC2)c1", "ASSIGNED_CATEGORY": "Low"}
{"MOLECULE": "O=C(c1cccnc1)N1CCc2ccccc21", "ASSIGNED_CATEGORY": "High"}
{"MOLECULE": "COc1ccccc1N1CCN(C(=O)C(Cc2ccccc2)NC(=O)C2CCCCC2)CC1 (stereo unspecified)", "ASSIGNED_CATEGORY": "Medium"}
{"MOLECULE": "CC1(C)NC(=O)N(CN2C(=O)NC(C)(C)C2=O)C1=O", "ASSIGNED_CATEGORY": "Medium"}
